Run description: qHTS of pediatric cancer cell lines to identify multiple opportunities for drug repurposing: Primary screen for Rh41 cells (AID 1347108); further: nearly all actives have a fitted effect of over 70% in size
Condition context: Rh41 rhabdomyosarcoma viability, CellTiter-Glo luminescence, 48 h; series mostly up to 46 µM
Results filed as inconclusive are left out. The source made the active and inactive calls. The call rests on the fitted dose curve; in most records, active means well fitted cell-killing curve with a large enough effect; inconclusive means small, poorly fitted or top-dose-only effect; inactive means no such curve, though single readings can be large or run the other way.
Classes used: yes (1) for active, no (0) for inactive

* CCN1/C(=C/C=C/c2sc3ccccc3[n+]2CC)Sc2ccccc21 | yes (1)
* CN1CCN(C2=Nc3cc(F)ccc3Cc3ccccc32)CC1 | no (0)
* CC(=O)OC[C@H]1O[C@@H](n2ncc(=O)[nH]c2=O)[C@H](OC(C)=O)[C@@H]1OC(C)=O | no (0)
* COc1cc(N)c(Cl)cc1C(=O)NC1CCN(Cc2ccccc2)CC1 | no (0)

----------
System: PC26
Run description: qHTS profiling for inhibitors of Plasmodium falciparum proliferation (AID 504749); further: nearly all actives have a fitted effect of over 60% in size; further: potency means the concentration at half of the fitted maximal effect
Condition context: P. falciparum in erythrocytes, SYBR Green DNA, 72 h; series mostly up to 28.7 µM
Results filed as inconclusive are left out. The source made the active and inactive calls. Calls follow the shape of the dose curve; as a rule, active = well fitted inhibition curve with a large enough effect; inconclusive = small, poorly fitted or top-dose-only effect; inactive = flat fitted curve, though single readings scatter.
Quantity: Potency

* Cc1ccccc1OCC(O)CO (stereo not drawn) | inactive
* COc1cc(C(=O)NCc2ccc(OCCN(C)C)cc2)cc(OC)c1OC | inactive
* CCN(CC)CCNc1ccc(CO)c2sc3ccccc3c(=O)c12 | 7.57 µM (active)

----------
System: CP265
Run description: qHTS profiling for inhibitors of Plasmodium falciparum proliferation (AID 504749); further: nearly all actives have a fitted effect of over 60% in size
Condition context: P. falciparum in erythrocytes, SYBR Green DNA, 72 h; series mostly up to 28.7 µM
Inconclusive results are not listed. The source made the active and inactive calls. Calls follow the shape of the dose curve; as a rule, active = well fitted inhibition curve with a large enough effect; inconclusive = small, poorly fitted or top-dose-only effect; inactive = flat fitted curve, though single readings scatter.
Classes used: 1 (yes) (active), 0 (no) (inactive)

- CC(=O)Nc1ccc(OCC(O)CNC(C)C)cc1 (configuration not stated): 0 (no)
- CCCCCCCCNC(C)C(O)c1ccc(SC(C)C)cc1 (configuration not stated): 1 (yes)
- O=C(O)CCC(=O)Nc1ccc(S(=O)(=O)Nc2nccs2)cc1: 0 (no)
- CC(C)CCCC(C)N (configuration not stated): 0 (no)
- CCOC(=O)C(C#N)=C(c1ccccc1)c1ccccc1: 0 (no)
- CCOC(=O)Nc1ccc2c(c1)N(C(=O)CCN1CCOCC1)c1ccccc1S2: 0 (no)
- CCOC(=O)c1ccc(N)cc1: 0 (no)
- CC(C)Cn1cnc2c1c(=O)n(C)c(=O)n2C: 0 (no)
- CN(C)CCC[C@@]1(c2ccc(F)cc2)OCc2cc(C#N)ccc21: 0 (no)
- Cc1cccc(C)c1NC(=O)c1ccccc1C(=O)O: 0 (no)
- CCCCNc1ccc(C(=O)OCCOCCOCCOCCOCCOCCOCCOCCOCCOC)cc1: 0 (no)
- NS(=O)(=O)Cc1noc2ccccc12: 0 (no)
- CC(C)NCC(O)c1ccc2ccccc2c1 (configuration not stated): 1 (yes)
- Cc1cc(C)cc(OCC2CNC(=O)O2)c1 (configuration not stated): 0 (no)
- N=C(N)N1CCc2ccccc2C1: 0 (no)
- CC(=O)N[C@@H](CCC(=O)O)C(=O)O: 0 (no)
- CN1CCN(CCC(=O)N2c3ccccc3Sc3ccc(C(F)(F)F)cc32)CC1: 0 (no)
- CN1CCC[C@@H]1CCO[C@](C)(c1ccccc1)c1ccc(Cl)cc1: 0 (no)
- CCCCC(CC)COC(=O)/C=C/c1ccc(OC)cc1 (configuration not stated): 0 (no)
- CC(=O)Oc1ccc(C)cc1: 0 (no)
- CN(Cc1ccc(C(C)(C)C)cc1)Cc1cccc2ccccc12: 0 (no)
- O=C(O)Cc1csc(-c2ccc(Cl)cc2)n1: 0 (no)
- CCOc1ccccc1C(N)=O: 0 (no)
- COc1cc(C(=O)NCc2ccc(OCCN(C)C)cc2)cc(OC)c1OC: 0 (no)
- NS(=O)(=O)c1cc(C(=O)O)cc(N2CCCC2)c1Oc1ccccc1: 0 (no)
- Nc1ccc(C(=O)NCC(=O)O)cc1: 0 (no)
- CCC(CC)(CC(=O)Nc1cccc(/C=C/c2nc(C3CCC3)cs2)c1)C(=O)O: 0 (no)
- C[C@@H](O)[C@H]1C(=O)N2C(C(=O)O)=C(S[C@@H]3CN[C@H](CNS(N)(=O)=O)C3)[C@H](C)[C@H]12: 0 (no)
- CCCCc1cc2ccccc2c(OCCN(C)C)n1: 0 (no)
- CC(C)Nc1cccnc1N1CCN(C(=O)c2cc3cc(NS(C)(=O)=O)ccc3[nH]2)CC1: 0 (no)
- CC(C)(C)NC[C@H](O)COc1cccc2c1CCCC2=O: 0 (no)
- CC(=O)Nc1ccc(S(=O)(=O)Nc2ccc([N+](=O)[O-])cc2)cc1: 0 (no)
- COc1ccc(C(Cl)=C(c2ccc(OC)cc2)c2ccc(OC)cc2)cc1: 1 (yes)
- Cc1cc(NS(=O)(=O)c2ccc(N)cc2)nc(C)n1: 0 (no)
- Cc1ccccc1OCC(O)CO (configuration not stated): 0 (no)
- COc1cc(C(=O)N2CCCCCCC2)cc(OC)c1OC: 0 (no)
- COP(=O)(OC)OC(c1ccc(Cl)cc1)P(=O)(OC)OC (configuration not stated): 0 (no)
- CNCCc1ccccn1: 0 (no)
- CC(C)[N+](C)(C)CC(O)COc1cccc2ccccc12 (configuration not stated): 0 (no)
- c1ccc(CC2=NCCN2)cc1: 0 (no)
- O=C(O)CCc1nc2ccccc2[nH]1: 0 (no)
- CC(=O)NO: 0 (no)

----------
Test system: CP266
Run description: qHTS profiling for inhibitors of Plasmodium falciparum proliferation (AID 504749); further: nearly all actives have a fitted effect of over 60% in size
Condition context: P. falciparum in erythrocytes, SYBR Green DNA, 72 h; series mostly up to 28.7 µM
Protocol: NIH National Institute of Allergy and Infectious Diseases [NIAID] NIH Chemical Genomics Center [NCGC] […] Because mature erythrocytes lack DNA, only Plasmodium-derived DNA is detected. NCGC Assay Protocol Summary: The SYBR Green viability assay was adapted from a method described previously (Plouffe et al., 2008). […] The following morning, fluorescence intensity at 485(14) nm excitation and 535(25) nm emission wavelengths was measured on an EnVision (Perkin Elmer) plate reader. […]
Results filed as inconclusive are left out. Calls of active or inactive are those of the source. Calls follow the shape of the dose curve; as a rule, active = well fitted inhibition curve with a large enough effect; inconclusive = small, poorly fitted or top-dose-only effect; inactive = flat fitted curve, though single readings scatter.
Classes used: True for active, False for inactive

• CC(=O)O[C@]1(C(C)=O)CC[C@H]2[C@@H]3C=C(Cl)C4=CC(=O)CC[C@]4(C)[C@H]3CC[C@@]21C = True
• CCCCN=C(N)N=C(N)N = False
• O=C(O)P(=O)(O)O = False

----------
Reported max response values follow for various compounds
System: HEK293
Run description: Cytotoxic Profiling of Annotated Libraries Using Quantitative High-Throughput Screening (AID 1296008)
Condition context: Five cell lines viability, CellTiter-Glo ATP luminescence, 48-72 h; active compounds read low
Results filed as inconclusive are left out.
Quantity: max response (%)

- O=[N+]([O-])c1ccc(/C=N\O)o1: -8.88
- COc1cc(C(=S)N2CCOCC2)ccc1O: -23.8
- CC(=O)O[C@H]1C[C@@H]2CC[C@@H]3[C@H](CC[C@@]4(C)[C@H]3C[C@H]([N+]3(C)CCCCC3)[C@@H]4OC(C)=O)[C@@]2(C)C[C@@H]1N1CCCCC1: 1.01
- c1ccc(CC2=NCCN2)cc1: -22.9
- C/C=C/c1ccc(O)c(OC)c1: -2.94
- CCCN(CCC)S(=O)(=O)c1ccc(C(=O)O)cc1: 3.98
- Cc1ccc(S(=O)(=O)NC(=O)NC2CCCC2)cc1: -5.76

----------
Tested on: HaCat
Run description: Cytotoxic Profiling of Annotated Libraries Using Quantitative High-Throughput Screening (AID 1296008)
Condition context: Five cell lines viability, CellTiter-Glo ATP luminescence, 48-72 h; active compounds read low
Inconclusive results are not listed.
Quantity: max response (%)

• Cc1c(-c2ccccc2)oc2c(C(=O)OCCN3CCCCC3)cccc2c1=O = 3.56
• COc1ccc(-c2cc(C(F)F)nn2-c2ccc(S(N)(=O)=O)cc2)cc1F = -0.189
• CC(C(=O)O)c1cccc(Oc2ccccc2)c1 (stereo unspecified) = -15.2
• CCOC(=O)C(C#N)=C(c1ccccc1)c1ccccc1 = -20.2
• CCOCCn1c(N2CCCN(C)CC2)nc2ccccc21 = 1.76
• CCNC(=O)NCc1cccc(Cl)c1 = -5.45

----------
Tested on: CP329
Run description: qHTS profiling for inhibitors of Plasmodium falciparum proliferation (AID 504749); further: nearly all actives have a fitted effect of over 60% in size
Condition context: P. falciparum in erythrocytes, SYBR Green DNA, 72 h; series mostly up to 28.7 µM
Records with an inconclusive call do not appear. Activity calls are given as the source filed them. Calls come from the whole dose curve; as a rule, active = well fitted inhibition curve with a large enough effect; inconclusive = small, poorly fitted or top-dose-only effect; inactive = flat fitted curve, though single readings scatter.
Classes used: yes (1) = active, no (0) = inactive

- N#CCC(=O)NN: no (0)
- O=C(Nc1cccc(C2=NCCN2)c1)Nc1cccc(C2=NCCN2)c1: yes (1)
- CC(C)(C)CC(C)(C)c1ccc(O)c(-n2nc3ccccc3n2)c1: no (0)
- COc1cc(C(=S)N2CCOCC2)ccc1O: no (0)
- O=C(O)CCNC(=O)c1ccccc1: no (0)
- Nc1ccc(S(=O)(=O)Nc2cnc3ccccc3n2)cc1: no (0)

Data origin, for the record: PubChem BioAssay (NCATS)
